Value source: paper PMC11480844

Assign ratio to parent to each entry below.
B1: H2-Kb / B5 (parent)
chain 1: TQTVSQSDAHVTVFEGDSVELRCNYSYGGSIYLSWYIQHHGHGLQFLLKYYSGNPVVQGVNGFEAEFSKSDSSFHLRKASVHWSDSAVYFCAVSLYQGGRALIFGTGTTVSVSP
chain 2: EAGVTQSPRYAVLQEGQAVSFWCDPISGHDTLYWYQQPRDQGPQLLVYFRDEAVIDNSQLPSDRFSAVRPKGTNSTLKIQSAKQGDTATYLCASSFAGGARAEQFFGPGTRLTVL
chain 3: not shown
chain 4: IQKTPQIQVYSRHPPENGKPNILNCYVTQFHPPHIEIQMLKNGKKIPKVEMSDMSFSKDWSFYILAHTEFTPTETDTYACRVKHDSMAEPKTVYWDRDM
chain 5: SIINFEKL

# Variants of: B1
# assayDetails: % of reporter cells activated (NFAT-GFP), raw; further: test concentration or dose not given here
# runParameters: with B5; scale: % of reporter cells activated

Assign ratio to parent to the following record: chain 5 L8T 1.04

Give the reported ratio to parent for this variant. chain 5 S1D 1.54

Dear colleague, please send me the reported ratio to parent for chain 5 I3R when you can. 1.03

Supply ratio to parent value. Item: chain 5 L8C 1.4

Please give measured ratio to parent of the following entry: chain 5 E6Q 1.24

In one line, give reported ratio to parent of the entry chain 5 E6H . 1.03

// fetch ratio to parent given entry chain 5 I3H 1.01

Give ratio to parent for chain 5 L8H 1.21

Query ratio to parent for chain 5 F5E 0.472

Return the recorded ratio to parent value; entry: chain 5 L8M 1.61

Provide only the value of recorded ratio to parent for chain 5 I3N 0.917

For chain 5 I3E , write its ratio to parent. 1.17

Identify measured ratio to parent associated with chain 5 K7S 0.944

Specify reported ratio to parent for the variant shown: chain 5 I2L 1.17

Recall and state the measured ratio to parent for chain 5 S1F . 1.22

Return the recorded ratio to parent value; entry: chain 5 L8F 1.53

Name the recorded ratio to parent of the variant listed here: chain 5 I2M 1.58

Supply measured ratio to parent of chain 5 F5W in your reply. 0.694

Look up and state reported ratio to parent for chain 5 E6I 1.36

Retrieve ratio to parent measured for chain 5 E6T and print it. 1.17

Provide ratio to parent value for the following variant: chain 5 S1H 1.11

Please give measured ratio to parent of the following entry: chain 5 F5K 1.06

Could you please provide reported ratio to parent for chain 5 F5A ? Thanks! 0.611

For the variant chain 5 I2Q , give its measured ratio to parent value. 1.11

Output ratio to parent of chain 5 E6K 1.17

Input chain 5 I2C , output reported ratio to parent. 0.694

Supply recorded ratio to parent for chain 5 N4K here. 1.07

Output measured ratio to parent for this item: chain 5 K7C 1.14

Fill in reported ratio to parent for this entry: chain 5 E6R 0.806

For the variant chain 5 S1E , report ratio to parent. 0.889

Recall and state the measured ratio to parent for chain 5 K7A . 1.19
